Just for reference, PubChem BioAssay is where these values come from.

# reported cell count; entries follow
- experimentNotes: inhibitors of TNFa-induced NFkB p65 translocation, primary screen, imaging, HUVEC, MLSMR starter and 10KST1 sets (AID 438);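 also: compound added about 3h40 before a 20 min TNFalpha stimulation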
- conditionContext: HUVEC TNFa-induced p65 nuclear translocation; measured here: nuclei count (cytotoxicity indicator), at 2.08 µM
# answer = number (no unit)

The cases that follow already have their cell count on record.
# compound, cell count
data = [
    ("CCOc1ccccc1-n1c(SCC(=O)NC2CCCC2)nnc1-c1ccoc1C", 588),
    ("Nn1c(Cc2ccccc2F)nnc1SCC(=O)N1CC(=O)Nc2ccccc21", 324),
    ("C=CCn1c(C2CC(=O)N(c3ccc(C)cc3)C2)nc2ccccc21 (centres undefined)", 591),
    ("CC(=O)Nc1ccc(S(=O)(=O)N2CCC(NC(C)=O)(c3cccc(F)c3)CC2)cc1", 682),
    ("CSc1nc2[nH]c3c(c2c2ncnn12)CCCC3", 547),
]

Q: Can you share its cell count? I mean this compound: Cc1noc(C)c1C(=O)Nc1ccc(Cl)cc1C(F)(F)F
A: 327

Q: Can you share its cell count? I mean this compound: Cc1csc2ncc(C(=O)N3CCc4ccccc43)c(=O)n12
A: 601

Q: Can you share its cell count? I mean this compound: COc1ccccc1C(=O)n1nc(-c2ccc(Cl)cc2)nc1N
A: 330

Q: Can you share its cell count? I mean this compound: O=C1OC2(c3ccccc3)C3CCCC2C13
A: 340

* * *

- experimentNotes: inhibitors of E-selectin induction by TNFa, primary screen, imaging, HUVEC, immunofluorescence, MLSMR starter and 10KST1 sets (AID 487);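 also: signal is fraction of cell area covered by stained E-selectin grains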
- conditionContext: HUVEC TNFalpha-induced E-selectin immunofluorescence imaging, at 2 µM; stronger effect = higher value
reportedProperty: inhibition (%)
Please state the figure in %; there is no need to write the unit.

The cases that follow already have their inhibition on record.
# molecule, valueUnits, inhibition
measured = [
    ("COCCNC(=O)C1CCCN(c2ncccn2)C1 (stereo not drawn)", "%", 98.1),
    ("CCOc1ccccc1OCC(=O)Nc1nnc(COC)s1", "%", 56.9),
    ("Cc1cc(C)n(CC2CC(=O)N(c3ccc(C)c(Cl)c3)C2=O)n1 (stereo not drawn)", "%", 19),
    ("CCOc1ccc(-c2nnc(SCC(=O)N3CCN(c4ccccc4)CC3)o2)cc1", "%", -59.7),
    ("O=C1C2ON(c3ccccc3)C(c3cccnc3)C2C(=O)N1c1ccc(Cl)c(Cl)c1 (stereo not drawn)", "%", -61.8),
]

Q: Can you share its inhibition? I mean this molecule: O=C(NCC1CCCO1)c1ccc(C(=O)NCC2CCCO2)cc1 (stereo not drawn)
A: 52.3

Q: Can you share its inhibition? I mean this molecule: CC(=O)Nc1ccc(NCC(O)COc2ccccc2)cc1 (stereo not drawn)
A: 6.8

Q: Can you share its inhibition? I mean this molecule: Cc1nc(SCC(=O)CC(=O)OC(C)C)c(C#N)c(C)c1C
A: 34.6

Q: Can you share its inhibition? I mean this molecule: CCOC(=O)Nc1cc(OC)c(OC)cc1Cc1nccc2cc(OC)c(OC)cc12
A: -20.1

Q: Can you share its inhibition? I mean this molecule: CCC1CCCN1Cn1cnc2c([nH]c3ccc(OC)cc32)c1=O (stereo not drawn)
A: -53.1

Q: Can you share its inhibition? I mean this molecule: Cc1c(C#N)c2ncnc(-c3ccccc3)c2n1-c1ccccc1
A: -8.1

Q: Can you share its inhibition? I mean this molecule: O=C(COC(=O)c1cncc(Br)c1)NCCC1=CCCCC1
A: -26.8

Q: Can you share its inhibition? I mean this molecule: Cc1ccc(NC(=O)CN(C)S(=O)(=O)c2cccc3nsnc23)cc1Cl
A: -20.4

Q: Can you share its inhibition? I mean this molecule: CC1(C)Cc2nc(NCCN3CCOCC3)c(C#N)cc2CO1
A: -133
